species: Homo sapiens; test: Selectivity ratio (m4/m3)
Measurement Type: Selectivity

[[record]]
compound = "O=C(CCCCCNC(=O)CC(c1ccccc1)(c1ccccc1)c1ccccc1)NC[C@H]1CCCN(CC2CCCCC2)C1"
measurement_type = "Selectivity"
measured_value = 30


[P] O=C(NC[C@H]1CCCN(CC2CCCCC2)C1)[C@H]1CCCN1C(=O)[C@@H]1CCCN1C(=O)CC(c1ccccc1)(c1ccccc1)c1ccccc1
[Q] O=C(CCCNC(=O)CC(c1ccccc1)(c1ccccc1)c1ccccc1)NCCC(=O)NCC1CCCN(CC2CCCCC2)C1 (stereo not drawn)
[R] O=C(CCNC(=O)CNC(=O)CC(c1ccccc1)(c1ccccc1)c1ccccc1)NC[C@H]1CCCN(CC2CCCCC2)C1
[S] O=C(CNC(=O)[C@@H]1CCCN1C(=O)CC(c1ccccc1)(c1ccccc1)c1ccccc1)NC[C@H]1CCCN(CC2CCCCC2)C1
Put the items in sequence by Selectivity, from largest down. A complete answer lists every label in the requested sequence.
R, Q, S, P
(R: 45, Q: 29, S: 19, P: 9)

[a] O=C(CCNC(=O)CC(c1ccccc1)(c1ccccc1)c1ccccc1)NCCC(=O)NC[C@H]1CCCN(CC2CCCCC2)C1
[b] O=C(CCCNC(=O)CNC(=O)CC(c1ccccc1)(c1ccccc1)c1ccccc1)NCC1CCCN(CC2CCCCC2)C1 (stereo not drawn)
Between item a and item b , which reported Selectivity is smaller? The response must carry the label of the picked entry.
b

---

Target: Muscarinic acetylcholine receptor M1 (Homo sapiens)
Sequence (P11229 whole entry): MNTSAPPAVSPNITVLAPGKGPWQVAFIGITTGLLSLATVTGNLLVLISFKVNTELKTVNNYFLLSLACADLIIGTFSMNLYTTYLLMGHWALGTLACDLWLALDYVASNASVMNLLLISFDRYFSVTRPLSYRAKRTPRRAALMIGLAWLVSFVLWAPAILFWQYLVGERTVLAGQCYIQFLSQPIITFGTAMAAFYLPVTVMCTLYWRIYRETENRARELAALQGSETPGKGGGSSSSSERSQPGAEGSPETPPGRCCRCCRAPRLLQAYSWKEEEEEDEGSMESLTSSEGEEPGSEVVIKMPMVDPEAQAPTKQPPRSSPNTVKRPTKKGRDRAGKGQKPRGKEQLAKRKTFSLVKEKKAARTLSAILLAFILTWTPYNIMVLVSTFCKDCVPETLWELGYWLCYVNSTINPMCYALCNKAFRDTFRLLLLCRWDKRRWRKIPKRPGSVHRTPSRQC
pKi: −log10 of the molar value.
Measurement Type: pKi

[[record]]
compound = "O=C(CCNC(=O)[C@@H]1CCCN1C(=O)CC(c1ccccc1)(c1ccccc1)c1ccccc1)NC[C@H]1CCCN(CC2CCCCC2)C1"
assay_system = "Muscarinic acetylcholine receptor M1 (Homo sapiens)"
measurement_type = "pKi"
measured_value = 6.82


[P] O=C(CCNC(=O)CNC(=O)CC(c1ccccc1)(c1ccccc1)c1ccccc1)NC[C@H]1CCCN(CC2CCCCC2)C1
[Q] O=C(CCCNC(=O)CNC(=O)CC(c1ccccc1)(c1ccccc1)c1ccccc1)NCC1CCCN(CC2CCCCC2)C1 (stereo not drawn)
Please indicate which has the smaller reported pKi: P , or Q . // return label of chosen record
Q
(Q: 6.52, P: 6.92)

---

Measurement record for Muscarinic acetylcholine receptor M5 (Homo sapiens, UniProt P08912); quantity recorded: pKi.
pKi: −log10 of the molar value.
Measurement Type: pKi

Recorded pKi, per entry:
[[record]]
compound = "O=C(CCNC(=O)[C@@H]1CCCN1C(=O)CC(c1ccccc1)(c1ccccc1)c1ccccc1)NC[C@H]1CCCN(CC2CCCCC2)C1"
assay_system = "Muscarinic acetylcholine receptor M5 (Homo sapiens, UniProt P08912)"
measured_value = 7.24

[[record]]
compound = "O=C(NC[C@H]1CCCN(CC2CCCCC2)C1)[C@H]1CCCN1C(=O)[C@@H]1CCCN1C(=O)CC(c1ccccc1)(c1ccccc1)c1ccccc1"
assay_system = "Muscarinic acetylcholine receptor M5 (Homo sapiens, UniProt P08912)"
measured_value = 6.82


[A] O=C(CCCNC(=O)CNC(=O)CC(c1ccccc1)(c1ccccc1)c1ccccc1)NCC1CCCN(CC2CCCCC2)C1 (stereo unspecified)
[B] O=C(CCCCCNC(=O)CC(c1ccccc1)(c1ccccc1)c1ccccc1)NC[C@H]1CCCN(CC2CCCCC2)C1
[C] O=C(CNC(=O)[C@@H]1CCCN1C(=O)CC(c1ccccc1)(c1ccccc1)c1ccccc1)NC[C@H]1CCCN(CC2CCCCC2)C1
[D] O=C(CCNC(=O)CNC(=O)CC(c1ccccc1)(c1ccccc1)c1ccccc1)NC[C@H]1CCCN(CC2CCCCC2)C1
Form: Sort by [pKi] Order [ ascending ] List each label, following the requested order.
C, A, B, D

Where do these numbers come from? They come from ChEMBL document CHEMBL1135983.
